- target: T1, His6-Pex5c, C-terminal fragment (residues 295-612) of S. cerevisiae PEX5 (S. cerevisiae, UniProt P35056 295-612)
- T1 construct: Pex5p (PEX5), PTS1 import receptor, S. cerevisiae, C-terminal fragment residues 295-612; Plasmid was a gift of Brooke M. Gardner; also called Pex5p C-terminal fragment; C-terminal truncation of Pex5p; not shown: His6, N-terminal, kept
- T1 sequence (looked up): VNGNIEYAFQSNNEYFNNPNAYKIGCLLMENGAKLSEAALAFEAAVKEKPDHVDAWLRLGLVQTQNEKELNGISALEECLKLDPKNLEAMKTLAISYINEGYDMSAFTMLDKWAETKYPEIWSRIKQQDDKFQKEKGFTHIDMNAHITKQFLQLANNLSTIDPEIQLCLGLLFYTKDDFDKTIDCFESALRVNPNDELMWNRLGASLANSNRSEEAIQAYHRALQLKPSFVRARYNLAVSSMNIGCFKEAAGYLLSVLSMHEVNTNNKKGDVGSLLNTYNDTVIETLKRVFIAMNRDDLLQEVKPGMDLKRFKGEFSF
- testName: fluorescence polarisation; direct titration: His6-Pex5C from 6.5 uM downward in twofold increments against 20 nM 5FAM-…; 50 mM HEPES pH 7.4, 100 mM NaCl, 0.05% Tween-20; equilibrated 16 h at 4 °C; anisotropy converted to fraction bound
- runParameters: both partners purified
pKd: −log10 of the molar value. Primed or numbered codes have the meaning given here. Ends that are not written are not given here. 5FAM′ = 5-carboxyfluorescein
reportedEndpoint: pKd

| binder | measurement |
| --- | --- |
| {5FAM′}-LGRGRRSKL (ePTS1: linker LGRGRR selected from a randomized six-residue linker library, followed by the canonical PTS1 SKL; also called fluorescein-tagged ePTS1 peptide; source: synthetic peptide, bought: Elim Biopharmaceuticals Inc) [5-Carboxyfluorescein-LGRGRRSKL] | 6.45 |
